target: T1, shFcRn (soluble human FcRn) (human, UniProt P55899 24-297; P61769 21-119); assay: SPR, shFcRn immobilized on chip, antibody as analyte, pH 6.0;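 also: kinetics fitted with a 1:1 Langmuir model, association 200 s and dissociation 600 s, samples diluted in PBST, double-referenced signals, values averaged across three shFcRn-coated cells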
T1 construct: extracellular domain; Printed only as 'soluble human FcRn'; also called hFcRn (immobilized on a chip)
T1 sequence (P55899 24-297 limits assumed, chain 1 of 2): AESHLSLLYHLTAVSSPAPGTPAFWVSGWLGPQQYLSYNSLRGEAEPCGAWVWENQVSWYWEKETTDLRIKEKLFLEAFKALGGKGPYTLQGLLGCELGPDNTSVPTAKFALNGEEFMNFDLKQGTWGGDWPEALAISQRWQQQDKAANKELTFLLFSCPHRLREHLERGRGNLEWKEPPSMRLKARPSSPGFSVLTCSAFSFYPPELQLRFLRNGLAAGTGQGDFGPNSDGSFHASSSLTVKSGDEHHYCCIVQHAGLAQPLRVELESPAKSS
T1 sequence (P61769 21-119 limits assumed, chain 2 of 2): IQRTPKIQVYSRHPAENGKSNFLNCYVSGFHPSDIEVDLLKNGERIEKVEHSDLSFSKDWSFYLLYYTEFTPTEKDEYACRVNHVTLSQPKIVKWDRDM
measured_parameter: kon (M⁻¹ s⁻¹)

* HL161AN variant No. 20 (LC:N25Q, HC:C32Y Q82S) (antibody, human IgG1, V domains shown, Variable domains only) VL: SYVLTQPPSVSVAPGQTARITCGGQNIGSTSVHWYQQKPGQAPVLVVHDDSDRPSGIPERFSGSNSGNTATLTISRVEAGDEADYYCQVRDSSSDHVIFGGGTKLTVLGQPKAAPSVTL VH: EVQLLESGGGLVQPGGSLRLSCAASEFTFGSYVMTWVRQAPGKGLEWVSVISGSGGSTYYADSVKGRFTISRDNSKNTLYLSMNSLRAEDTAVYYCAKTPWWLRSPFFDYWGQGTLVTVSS | 2.54e+06
* HL161AN variant No. 10 (LC:N25S, HC:C32Y Q82T) (antibody, human IgG1, V domains shown, Variable domains only) VL: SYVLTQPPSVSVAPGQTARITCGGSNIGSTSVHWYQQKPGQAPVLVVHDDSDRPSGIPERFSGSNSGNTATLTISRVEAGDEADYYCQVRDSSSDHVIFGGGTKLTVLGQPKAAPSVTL VH: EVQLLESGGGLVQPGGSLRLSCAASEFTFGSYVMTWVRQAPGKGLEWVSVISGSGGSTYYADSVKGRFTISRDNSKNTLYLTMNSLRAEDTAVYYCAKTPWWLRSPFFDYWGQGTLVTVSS | 2.8e+06
* HL161AN variant No. 1 (LC:N25S, HC:C32S) (antibody, V domains shown, also called HL161ANS; #1 (HL161ANS)) VL: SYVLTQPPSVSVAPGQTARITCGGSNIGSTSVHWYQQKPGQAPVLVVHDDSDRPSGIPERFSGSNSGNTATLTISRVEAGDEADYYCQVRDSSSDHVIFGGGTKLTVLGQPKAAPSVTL VH: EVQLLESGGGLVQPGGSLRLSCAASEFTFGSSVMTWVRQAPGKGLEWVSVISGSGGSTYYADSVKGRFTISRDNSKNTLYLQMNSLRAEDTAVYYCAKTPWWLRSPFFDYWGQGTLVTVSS | 3.58e+06
* HL161AN variant No. 5 (LC:N25S, HC:Q82E) (antibody, human IgG1, V domains shown, Variable domains only) VL: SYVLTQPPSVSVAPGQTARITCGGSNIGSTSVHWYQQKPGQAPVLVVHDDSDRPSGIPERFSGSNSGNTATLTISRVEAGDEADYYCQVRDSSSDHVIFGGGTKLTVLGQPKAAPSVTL VH: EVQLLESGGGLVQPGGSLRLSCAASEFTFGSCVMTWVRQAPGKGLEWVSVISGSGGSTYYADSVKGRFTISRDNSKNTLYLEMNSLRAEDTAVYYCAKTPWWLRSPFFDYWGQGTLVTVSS | 2.46e+06
* HL161AN variant No. 15 (LC:N25Q, HC:Q82T) (antibody, human IgG1, V domains shown, Variable domains only) VL: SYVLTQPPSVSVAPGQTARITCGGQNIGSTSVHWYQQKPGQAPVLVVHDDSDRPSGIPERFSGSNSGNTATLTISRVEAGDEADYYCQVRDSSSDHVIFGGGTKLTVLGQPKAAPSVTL VH: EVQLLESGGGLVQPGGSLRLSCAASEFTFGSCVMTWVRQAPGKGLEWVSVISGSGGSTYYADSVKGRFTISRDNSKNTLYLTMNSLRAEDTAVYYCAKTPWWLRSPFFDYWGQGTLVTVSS | 2.27e+06
* HL161AN variant No. 17 (LC:N25Q, HC:C32S Q82S) (antibody, human IgG1, V domains shown, Variable domains only) VL: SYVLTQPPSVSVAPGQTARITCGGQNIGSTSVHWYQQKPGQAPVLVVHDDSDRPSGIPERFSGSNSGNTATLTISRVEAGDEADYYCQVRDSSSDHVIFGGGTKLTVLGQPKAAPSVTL VH: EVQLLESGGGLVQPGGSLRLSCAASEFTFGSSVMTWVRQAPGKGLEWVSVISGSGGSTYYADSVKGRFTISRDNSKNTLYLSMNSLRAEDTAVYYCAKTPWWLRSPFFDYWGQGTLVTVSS | 3.19e+06

Reference for the values: patent US20230391876A1
